Test system: Quadruplex DNA
Assay: Stabilization of F21T telomeric G-quadruplex DNA (unknown origin) assessed as change in melting temperature at 1 uM by FRET assay
Assay type: nucleic-acid assay
Threshold check on ΔTm: strictly below 10 °C is Fulfilled; on or above 10 °C is Not fulfilled.

In [3]: df
Out[3]:
                                 smiles_str             tgt     class_name
0  CN1CCN(CCCNc2cc3nc(/C=C4\C(=O)Nc5cc(N6CCN(C)CC6)c(F)cc54)[nH]c(=O)c3cc2F)CC1  Quadruplex DNA  Not fulfilled
1  CCN(CC)CCCNc1cc2nc(/C=C3\C(=O)Nc4cc(N5CCN(C)CC5)c(F)cc43)[nH]c(=O)c2cc1F  Quadruplex DNA  Not fulfilled

-- ask Record O=C1Nc2cc(N3CCOCC3)c(F)cc2/C1=C/c1nc2cc(NCCCN3CCOCC3)c(F)cc2c(=O)[nH]1 : is its ΔTm strictly below 10 °C?
-- reply Fulfilled

-- ask Likewise for CN(C)CCCN(CCCN(C)C)c1cc2nc(/C=C3\C(=O)Nc4ccccc43)[nH]c(=O)c2cc1F ?
-- reply Not fulfilled

-- ask Likewise for O=C1Nc2ccccc2/C1=C/c1nc2cc(NCCCN3CCOCC3)c(F)cc2c(=O)[nH]1 ?
-- reply Fulfilled

-- ask Likewise for CCN(CC)CCCNc1cc2nc(/C=C3\C(=O)Nc4cc(N5CCOCC5)c(F)cc43)[nH]c(=O)c2cc1F ?
-- reply Fulfilled

-- ask Likewise for CN(C)CCCNc1cc2nc(/C=C3\C(=O)Nc4cc(N5CCOCC5)c(F)cc43)[nH]c(=O)c2cc1F ?
-- reply Not fulfilled

-- ask Likewise for CN1CCN(c2ccc3c(c2)NC(=O)/C3=C\c2nc3cc(NCCN4CCCCC4)c(F)cc3c(=O)[nH]2)CC1 ?
-- reply Not fulfilled

* * *

Assay: Stabilization of F10T hairpin duplex DNA (unknown origin) assessed as change in melting temperature at 1 uM by FRET assay
Provide the recorded ΔTm for the entries that follow.
Answers are plain numbers, in °C.

Guide cases for ΔTm, answers given:
>>> print(df.to_string())
                                 smiles_str  result_value
0  CN1CCN(c2cc3c(cc2F)/C(=C/c2nc4cc(NCCN5CCCC5)c(F)cc4c(=O)[nH]2)C(=O)N3)CC1           0.1
1  CN(C)CCNc1cc2nc(/C=C3\C(=O)Nc4cc(N5CCN(C)CC5)c(F)cc43)[nH]c(=O)c2cc1F           0.3
2  CN(C)CCCNc1cc2nc(/C=C3\C(=O)Nc4cc(N(C)CCCN(C)C)c(F)cc43)[nH]c(=O)c2cc1F           0.3
3  CN(C)CCNc1cc2nc(/C=C3\C(=O)Nc4cc(N5CCN(C)CC5)ccc43)[nH]c(=O)c2cc1F           0.2
4  O=C1Nc2ccccc2/C1=C/c1nc2cc(NCCCN3CCOCC3)c(F)cc2c(=O)[nH]1           0.1

The following compounds each have a reported value; give each one's ΔTm.
1. CN1CCN(c2ccc3c(c2)NC(=O)/C3=C\c2nc3cc(NCCN4CCCCC4)c(F)cc3c(=O)[nH]2)CC1
2. CN1CCN(c2cc3c(cc2F)/C(=C/c2nc4cc(NCCN5CCCCC5)c(F)cc4c(=O)[nH]2)C(=O)N3)CC1

-- reply
0.2
0.2

-- ask Could you share which ΔTm value was measured for CCN(CC)CCCNc1cc2nc(/C=C3\C(=O)Nc4ccccc43)[nH]c(=O)c2cc1F ?
-- reply 0.1

* * *

Provide the recorded IC50 for the entries that follow.
Assay: Inhibition of telomerase (unknown origin) by TRAP-LIG assay
Design: species or system Homo sapiens
One number for each entry, in µM.

>>> df
                                 smiles_str  reported_endpoint  result_value
0  CN(C)CCCNc1cc2nc(/C=C3\C(=O)Nc4cc(N5CCN(C)CC5)c(F)cc43)[nH]c(=O)c2cc1F               IC50          12.3

Field: next compound
-- ask Could you share which IC50 value was measured for CN(C)CCCNc1cc2nc(/C=C3\C(=O)Nc4cc(N5CCN(C)CC5)ccc43)[nH]c(=O)c2cc1F ?
-- reply 9.6

* * *

Provide the recorded ΔTm for the entries that follow.
Assay: Stabilization of F10T hairpin duplex DNA (unknown origin) assessed as change in melting temperature at 1 uM by FRET assay
Answers are plain numbers, in °C.

>>> df
                                 smiles_str  result_value
0  CCN(CC)CCCNc1cc2nc(/C=C3\C(=O)Nc4cc(N5CCN(C)CC5)ccc43)[nH]c(=O)c2cc1F           0.2

The following molecules each have a reported value; give each one's ΔTm.
1. CN(C)CCCNc1cc2nc(/C=C3\C(=O)Nc4cc(N5CCN(C)CC5)c(F)cc43)[nH]c(=O)c2cc1F
2. CN(C)CCCNc1cc2nc(/C=C3\C(=O)Nc4ccccc43)[nH]c(=O)c2cc1F
3. CN(C)CCCNc1ccc2c(=O)[nH]c(/C=C3\C(=O)Nc4ccccc43)nc2c1
4. CCN(CC)CCCN1C(=O)/C(=C\c2nc3cc(N4CCN(C)CC4)c(F)cc3c(=O)[nH]2)c2ccccc21

-- reply
0.1
0.2
0.1
0.3

* * *

Tested on: U2OS
Test: Antiproliferative activity against human U2OS cells after 48 hrs by MTT assay
Assay type: functional, cell-based
pIC50: −log10 of the molar value.
Answer label 0 if pIC50 is under 5, and label 1 if it is 5 or more.

Field: example entries. Status: answers known.
                                 smiles_str  class_name
0  CN(C)CCCNc1ccc2c(=O)[nH]c(/C=C3\C(=O)Nc4cc(N5CCN(C)CC5)ccc43)nc2c1     label 0
1  CN1CCN(c2cc3c(cc2F)/C(=C/c2nc4cc(NCCN5CCCC5)c(F)cc4c(=O)[nH]2)C(=O)N3)CC1     label 1
2  CN1CCN(c2ccc3c(c2)NC(=O)/C3=C\c2nc3cc(NCCN4CCCC4)c(F)cc3c(=O)[nH]2)CC1     label 1
3  CN1CCN(c2cc3c(cc2F)/C(=C/c2nc4cc(NCCCN5CCCC5)c(F)cc4c(=O)[nH]2)C(=O)N3)CC1     label 0
4  CN(C)CCCNc1cc2nc(/C=C3/C(=O)Nc4ccccc43)n(CCCN(C)C)c(=O)c2cc1F     label 0
5  CN(C)CCCNc1cc2nc(/C=C3\C(=O)Nc4cc(N5CCN(C)CC5)ccc43)[nH]c(=O)c2cc1F     label 1
6  CN(C)CCNc1cc2nc(/C=C3\C(=O)Nc4cc(N5CCN(C)CC5)c(F)cc43)[nH]c(=O)c2cc1F     label 1
7  CCN(CC)CCCNc1cc2nc(/C=C3\C(=O)Nc4cc(N5CCOCC5)c(F)cc43)[nH]c(=O)c2cc1F     label 0

-- ask I'd appreciate it if you could say whether CN(C)CCCNc1cc2nc(/C=C3\C(=O)Nc4cc(N5CCOCC5)c(F)cc43)[nH]c(=O)c2cc1F has pIC50 at least equal to 5.
-- reply label 0

-- ask Likewise for CN(C)CCCNc1ccc2c(=O)[nH]c(/C=C3\C(=O)Nc4ccccc43)nc2c1 ?
-- reply label 0

-- ask Likewise for CN1CCN(c2cc3c(cc2F)/C(=C/c2nc4cc(NCCN5CCCCC5)c(F)cc4c(=O)[nH]2)C(=O)N3)CC1 ?
-- reply label 1

-- ask Likewise for CCN(CC)CCCN1C(=O)/C(=C\c2nc3cc(N4CCN(C)CC4)c(F)cc3c(=O)[nH]2)c2ccccc21 ?
-- reply label 0

-- ask Likewise for O=C1Nc2cc(N3CCOCC3)c(F)cc2/C1=C/c1nc2cc(NCCCN3CCCC3)c(F)cc2c(=O)[nH]1 ?
-- reply label 0

-- ask Likewise for CN(C)CCCN(CCCN(C)C)c1cc2nc(/C=C3\C(=O)Nc4ccccc43)[nH]c(=O)c2cc1F ?
-- reply label 0

* * *

Assay: Stabilization of F10T hairpin duplex DNA (unknown origin) assessed as change in melting temperature at 1 uM by FRET assay
REPORTED ENDPOINT: ΔTm (°C)
Answers are plain numbers, in °C.

Guide cases for ΔTm, answers given:
>>> df
                                 smiles_str  result_value
0  O=C1Nc2cc(N3CCOCC3)c(F)cc2/C1=C/c1nc2cc(NCCCN3CCCC3)c(F)cc2c(=O)[nH]1           0.3
1  CN(C)CCCN(C)c1cc2c(cc1F)/C(=C/c1nc3cc(NCCN(C)C)c(F)cc3c(=O)[nH]1)C(=O)N2           0.3
2  CN(C)CCCNc1cc2nc(/C=C3/C(=O)Nc4cc(N5CCN(C)CC5)ccc43)n(C)c(=O)c2cc1F           0.1
3  CN(C)CCCN(C)c1cc2c(cc1F)/C(=C/c1nc3cc(N4CCN(C)CC4)c(F)cc3c(=O)[nH]1)C(=O)N2           0.2
4  CN1CCN(c2ccc3c(c2)NC(=O)/C3=C\c2nc3cc(NCCN4CCCC4)c(F)cc3c(=O)[nH]2)CC1           0.2

The following compounds each have a reported value; give each one's ΔTm.
1. CCN(CC)CCNc1cc2nc(/C=C3\C(=O)Nc4cc(N5CCN(C)CC5)c(F)cc43)[nH]c(=O)c2cc1F
2. CN(C)CCCNc1cc2nc(/C=C3\C(=O)Nc4cc(N5CCN(C)CC5)ccc43)[nH]c(=O)c2cc1F

-- reply
1: 0.3; 2: 0.1

-- ask Could you share which ΔTm value was measured for CN(C)CCCN(CCCN(C)C)c1cc2nc(/C=C3\C(=O)Nc4ccccc43)[nH]c(=O)c2cc1F ?
-- reply 0.2
